- test details: NOD1 signaling inhibitors, primary screen, cell-based, luminescence, uHTS (AID 1578);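 note: HEK-293T reporter cells stimulated with the NOD1 agonist gamma-tri-DAP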
- condition parameters: NOD1-driven NF-kB luciferase reporter cells, at 4 µM
The campaign covered roughly 290,000 compounds. About 3,000 (1%) were called active. Cut-off read from the data, not from the text of the source: active = inhibition mostly above about 36% (no sharp cut-off); inactive = mostly below about 34%. The sample as a whole holds a higher share of actives than the screen did.
Outcomes: TRUE (active), FALSE (inactive)

compound=CC(=O)N1[C@H](Cc2ccccc2)C=C[C@]1(C)C(=O)NCc1ccccn1 label_value=FALSE
compound=C[C@]1(C(=O)NCCc2c[nH]c3ccccc23)C=C[C@@H](Cc2ccccc2)N1C(=O)c1ccccc1 label_value=TRUE
compound=O=C(NNC1=Nc2ccccc2SC1)c1ccc(F)cc1 label_value=FALSE
compound=CC(=O)N1[C@H](Cc2ccccc2)C=C[C@]1(C)C(=O)NCCN1CCOCC1 label_value=FALSE
compound=CC(=O)N1[C@H](Cc2ccccc2)C=C[C@]1(C)C(=O)NCc1ccc(C)o1 label_value=TRUE
compound=Cc1cc(C)n2nc(C(=O)Nc3c(C)nn(Cc4ccc(F)cc4)c3C)cc2n1 label_value=FALSE
compound="CC1CN(Cc2c(O)ccc3c(=O)c(-c4ccccc4)coc23)CC(C)O1 (stereo not given)" label_value=FALSE
compound="CC1CN(C(=O)c2cc3ccccc3oc2=O)CC(C)O1 (stereo not given)" label_value=FALSE
compound="CC(C)(C)C1CCC(=O)N(CCSc2ccccc2)CC1 (stereo not given)" label_value=FALSE
compound=O=C(NNC1=Nc2ccccc2SC1)c1ccc(Cl)cc1 label_value=TRUE

----------
inhibition by entry:
- test details: NOD1 signaling inhibitors, primary screen, cell-based, luminescence, uHTS (AID 1578);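 note: HEK-293T reporter cells stimulated with the NOD1 agonist gamma-tri-DAP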
- condition parameters: NOD1-driven NF-kB luciferase reporter cells, at 4 µM, active compounds read high
The whole screen tested about 290,000 compounds, of which about 3,000 (1%) were called active. For the sample, actives were picked, then their nearest neighbours and some compounds at random.
assay endpoint: inhibition (%)

compound=CCn1c(C)nc2cc(C(=O)n3cc(C(=O)c4cc(F)ccc4O)cn3)ccc21 assay_endpoint=inhibition result_units=% measured_number=23.8
compound=Cc1cccc(C)c1NC(=S)NCCc1ccc(O)c(O)c1 assay_endpoint=inhibition result_units=% measured_number=-28.1
compound="CCSC1=C(C#N)C(c2ccccc2Cl)C(C(=O)c2cccs2)C(O)(C(F)(F)F)N1 (stereo not given)" assay_endpoint=inhibition result_units=% measured_number=64.5
compound=Cc1cc(C(=O)CSc2nc(N)cc(=O)[nH]2)c(C)n1-c1ccc(OC(F)F)cc1 assay_endpoint=inhibition result_units=% measured_number=45.3
compound=COc1ccc(/C=N/c2nc3ccccc3n2C)cc1OC assay_endpoint=inhibition result_units=% measured_number=-12.1
compound=Cc1cc(C(=O)CSc2cccc[n+]2[O-])c(C)n1-c1ccc(OC(F)F)cc1 assay_endpoint=inhibition result_units=% measured_number=2.7
compound=Cc1ccc(C(=O)COC(=O)c2cc(Cl)nc3ccccc23)cc1C assay_endpoint=inhibition result_units=% measured_number=-37.6
compound="C=CCSC1=C(C#N)C(c2ccccc2Cl)C(C(=O)c2cccs2)C(O)(C(F)(F)F)N1 (stereo not given)" assay_endpoint=inhibition result_units=% measured_number=63.3
compound=COc1ccc(S(=O)(=O)NC(N)=NCCc2ccc(OC)c(OC)c2)cc1C assay_endpoint=inhibition result_units=% measured_number=-11.6
compound=Cc1cc(-n2c(C)cc(C(=O)CSc3nc(N)cc(=O)[nH]3)c2C)no1 assay_endpoint=inhibition result_units=% measured_number=9.7

----------
- test details: NOD1 signaling inhibitors, primary screen, cell-based, luminescence, uHTS (AID 1578);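 note: HEK-293T reporter cells stimulated with the NOD1 agonist gamma-tri-DAP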
- condition parameters: NOD1-driven NF-kB luciferase reporter cells, at 4 µM
About 3,000 (1%) of roughly 290,000 compounds were called active. Rule as the data show it: active = inhibition mostly above about 36% (no sharp cut-off); inactive = mostly below about 34%. The list comes from a sample in which actives are over-represented; it also holds close analogues and randomly drawn compounds.
Labels: true = active, false = inactive

compound=CCCCNC(=S)Nc1ccccc1Cc1ccccc1 label_value=false
compound=COCCNC(=S)Nc1ccccc1Cc1ccccc1 label_value=true
compound=C=CCNC(=O)c1oc2ccc(S(=O)(=O)N3CCC4(CC3)OCCO4)cc2c1C label_value=false
compound=Cc1ccc(NC(=O)CN(C)C(=O)/C=C/c2cccc(F)c2)cc1 label_value=false
compound=O=C(CN1C(=O)c2ccccc2C1=O)Nc1cc([N+](=O)[O-])ccc1O label_value=false
compound=O=C(N/N=C/c1ccc([N+](=O)[O-])cc1)c1[nH]ncc1Br label_value=false
compound=COCCn1c(C)cc(/C=C2/NC(=O)N(Cc3ccc(C)cc3)C2=O)c1C label_value=false
compound=CCc1ccc(OCC(=O)N/N=C(\C)c2ccccc2OC(F)F)cc1 label_value=false
compound="O=C1CCC(C(=O)Nc2ccccc2)N1 (configuration not stated)" label_value=false
compound=CN1CCC(OC(=O)c2ccco2)CC1 label_value=false
compound=c1ccc(-c2nc3ccccc3[nH]2)cc1 label_value=false
compound=O=C(O)c1cccc(-c2nc3ccccc3[nH]2)c1 label_value=true

----------
- test details: NOD1 signaling inhibitors, primary screen, cell-based, luminescence, uHTS (AID 1578);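 note: HEK-293T reporter cells stimulated with the NOD1 agonist gamma-tri-DAP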
- condition parameters: NOD1-driven NF-kB luciferase reporter cells, at 4 µM, active compounds read high
Out of some 290,000 compounds screened, about 3,000 (1%) were called active. The entries come from a sample that favours actives as a whole.
assay endpoint: inhibition (%)

compound=CCN(CC)CC(=O)Nc1cccc(S(=O)(=O)N2CCCC2)c1 assay_endpoint=inhibition measured_number=-15.1
compound="Cc1nc2cc(NC(=O)N3CC4(C)CC3CC(C)(C)C4)ccc2n1C (stereo not drawn)" assay_endpoint=inhibition measured_number=-31.3
compound=Cc1nn(C)cc1CN(C)Cc1c(C(=O)N(C)Cc2ccccc2)nc2ccccn12 assay_endpoint=inhibition measured_number=-20.3
compound=Nc1cccc(N2C(=O)c3cccc4c(N)ccc(c34)C2=O)c1 assay_endpoint=inhibition measured_number=5.7
compound=COc1cc(SC)ccc1C(=O)Nc1nccs1 assay_endpoint=inhibition measured_number=-52.4
compound="COc1cccc(CC(NC(C)=O)C(=O)NC2CCN(c3c4c(nc5ncnn35)CCC4)CC2)c1OC (stereo not drawn)" assay_endpoint=inhibition measured_number=-26.4
compound=COc1cc2ccccc2cc1C(=O)Nc1ccc(N2CCN(C(=O)C(C)C)CC2)cc1 assay_endpoint=inhibition measured_number=17.8
compound=COc1cc(NC(=O)CNc2cccc(S(=O)(=O)N3CCCC3)c2)cc(OC)c1 assay_endpoint=inhibition measured_number=-2.7
compound="COc1ccc(NC(=O)N2c3ccccc3CC2C)cc1OC (stereo not drawn)" assay_endpoint=inhibition measured_number=-26.9
compound="O=C(NC(CO)c1ccccc1)c1ccco1 (stereo not drawn)" assay_endpoint=inhibition measured_number=3
compound=CC(C)(C(=O)N[C@H](CO)c1ccccc1)C(=O)N[C@H](CO)c1ccccc1 assay_endpoint=inhibition measured_number=95
compound=O=C1/C(=C\c2ccc3c(c2)OCO3)CCC/C1=C/c1ccc2c(c1)OCO2 assay_endpoint=inhibition measured_number=-48
compound=Cc1cc(NCc2ccccc2)nc(-c2ccccc2O)n1 assay_endpoint=inhibition measured_number=-41.6
compound=CCCN1C(=O)/C(=C/c2ccc3c(c2)OCO3)NC1=S assay_endpoint=inhibition measured_number=-29.7
compound=N#C/C(=C\c1cc([N+](=O)[O-])ccc1Cl)C(N)=O assay_endpoint=inhibition measured_number=-44.7
compound=O=C(CCN1C(=O)/C(=C/c2ccc3c(c2)OCO3)SC1=S)Nc1ccccc1 assay_endpoint=inhibition measured_number=-5.3
compound=CCCN1C/C(=C/c2ccc3c(c2)OCO3)C(=O)/C(=C/c2ccc3c(c2)OCO3)C1 assay_endpoint=inhibition measured_number=67.2
compound=Cn1cnnc1SCc1ccc(C#N)cc1Cl assay_endpoint=inhibition measured_number=-35.4
compound=Cc1ccc(C(C)C)c(OCC(=O)Nc2cccc(S(=O)(=O)NC3=NCCCCC3)c2)c1 assay_endpoint=inhibition measured_number=53.3
compound=Nc1ccc2c3c(cccc13)C(=O)N(c1ccccc1)C2=O assay_endpoint=inhibition measured_number=-19.1
compound=COc1ccc(C(=O)/C=C/c2ccccc2C(F)(F)F)cc1 assay_endpoint=inhibition measured_number=-21.4
compound=Cc1ccc(C)c(OCC(=O)Nc2cccc(S(=O)(=O)NC3=NCCCCC3)c2)c1 assay_endpoint=inhibition measured_number=-2.9
compound=COc1cc(SC)ccc1C(=O)Nc1nc(C)cc(C)n1 assay_endpoint=inhibition measured_number=-19.1
compound=CCN(CC)S(=O)(=O)c1ccc(C(=O)Nc2cccc(C)c2)cc1 assay_endpoint=inhibition measured_number=-4.2
compound=Cc1ccc(S(=O)(=O)/N=C(/Nc2ccc3[nH]c(=O)[nH]c3c2)c2ccc(F)cc2)cc1 assay_endpoint=inhibition measured_number=3.8
compound=CC(=O)OCC(=O)Nc1cc(S(=O)(=O)N2CCCCCC2)ccc1Cl assay_endpoint=inhibition measured_number=-22.1
compound=COc1cc(SC)ccc1C(=O)Nc1nc(C)cs1 assay_endpoint=inhibition measured_number=91.9
compound=CCOC(=O)CNC(=O)CSc1nnc(NC(=O)c2ccc(S(=O)(=O)N3CCOCC3)cc2)s1 assay_endpoint=inhibition measured_number=-3.6
compound=NCCN1C(=O)S/C(=C\c2ccc3c(c2)OCO3)C1=O assay_endpoint=inhibition measured_number=27.3
compound=COc1cc(SC)ccc1C(=O)Nc1ccc(Cl)cn1 assay_endpoint=inhibition measured_number=16.3
compound=CCN(CC)S(=O)(=O)c1cc(C(=O)OCC(=O)c2ccc3c(c2)NC(=O)CO3)ccc1F assay_endpoint=inhibition measured_number=-21.3
compound="CC(CC(=O)Nc1ccc(S(=O)(=O)Nc2ncccn2)cc1)c1ccccc1 (stereo not drawn)" assay_endpoint=inhibition measured_number=-22.5
compound=CCN1CCc2c(OCc3ccc(C)cc3)cccc2C1=O assay_endpoint=inhibition measured_number=2.6
compound=O=C(CCC(=O)Nc1cc(C(F)(F)F)ccc1Cl)N/N=C\c1cc([N+](=O)[O-])ccc1O assay_endpoint=inhibition measured_number=3
compound="COC(=O)c1ccc(C23CC4(C2)[C@H](CN(Cc2ccc(-c5ccccc5)cc2)[C@@H]4c2ccccc2)C3c2ccc(Cl)nc2)cc1 (stereo partly drawn)" assay_endpoint=inhibition measured_number=-11.8
compound="CCC(C)C(NC(=O)C(CC(C)C)NC(=O)C(CO)NC(=O)C1CCC(=O)N1)C(=O)OC (stereo not drawn)" assay_endpoint=inhibition measured_number=-36
compound="CC(c1ccon1)N(C)Cc1c(C(=O)N(C)Cc2ccccc2)nc2ccccn12 (stereo not drawn)" assay_endpoint=inhibition measured_number=-38.7
compound=CCOc1ccc(-c2nc(N)ncc2-c2ccc(OC)cc2)c(O)c1 assay_endpoint=inhibition measured_number=7.2
compound=CCN(CC)C(=S)SCC(=O)c1ccccc1 assay_endpoint=inhibition measured_number=-25.7
compound=COc1cc(NC(=O)CN(c2ccc(C)cc2)S(=O)(=O)c2c(C)noc2C)cc(OC)c1 assay_endpoint=inhibition measured_number=-34.4
compound=CCOC(=O)Cn1nc(-c2ccccc2)c2ccccc2c1=O assay_endpoint=inhibition measured_number=-6.3
compound=Cc1ccc(OCC(=O)Nc2cccc(S(=O)(=O)NC3=NCCCCC3)c2)cc1C assay_endpoint=inhibition measured_number=-93
compound=CCN(CC)C(=S)SC1=CCS(=O)(=O)C1 assay_endpoint=inhibition measured_number=-17.5
